- assay_target: T1, CytR DBD (Escherichia coli, UniProt P0ACN7 1-67)
- T1 sequence: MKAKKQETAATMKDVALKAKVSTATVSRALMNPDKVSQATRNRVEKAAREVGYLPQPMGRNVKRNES
- protocol_details: fluorescence anisotropy
property_measured: pKd
One number for each entry, as −log10 of the molar value.

Exam item: # lookup: pKd of udp left half-site (dsDNA) DNA 1: ATTTATGCAACGCA DNA 2: TGCGTTGCATAAAT
Marked response: 5.02
